Hello, the source for this data is patent US20130190268A1, in case you need it.

Entries and their anti-factor Xa activity in the supernatant
- Experimental system: avidin (Gallus gallus, UniProt P02701)
- Sequence (P02701 25-152, species assumed): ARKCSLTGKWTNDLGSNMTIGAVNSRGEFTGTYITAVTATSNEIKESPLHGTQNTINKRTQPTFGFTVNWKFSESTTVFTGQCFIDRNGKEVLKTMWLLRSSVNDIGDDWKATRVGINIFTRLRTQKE
- Method: Neutralization with avidin: avidin-coated beads, centrifugation, anti-factor Xa activity assayed in supernatant
- Assay type: binding
- Condition info: 0.0001 μg product/μg avidin, after centrifugation
Counter-ions that a name gives are not always drawn.
Number only, in %; omit the unit.

Illustrative cases are given below, each with its answer.
Compound: COC1OC(COS(=O)(=O)O)C(OC2OC(C(=O)O)C(OC3OC(COS(=O)(=O)O)C(OC4OC(C(=O)O)C(OC5OC(COS(=O)(=O)O)C(OC)C(OC)C5NC(=O)CCCCCNC(=O)CCCCC5SCC6NC(=O)NC65)C(OC)C4OC)C(OS(=O)(=O)O)C3OS(=O)(=O)O)C(OC)C2OC)C(OS(=O)(=O)O)C1OS(=O)(=O)O (centres unmarked) [Idrabiotaparinux, idrabiotaparinux, reference compound]
Measure unit: %
Val: 2.5

Compound: COC1OC(COS(=O)(=O)O)C(OC2OC(C(=O)O)C(OC3OC(COS(=O)(=O)O)C(OC4OC(C(=O)O)C(OC5OC(COS(=O)(=O)O)C(OC)C(OC)C5NC(=O)CCCCCN(C)CCCCCC5SCC6NC(=O)NC65)C(OC)C4OC)C(OS(=O)(=O)O)C3OS(=O)(=O)O)C(OC)C2OC)C(OS(=O)(=O)O)C1OS(=O)(=O)O (centres unmarked) [Compound 2, sodium salt]
Measure unit: %
Val: 3.0

Compound: COC1OC(COS(=O)(=O)O)C(OC2OC(C(=O)O)C(OC3OC(COS(=O)(=O)O)C(OC4OC(C(=O)O)C(OC5OC(COS(=O)(=O)O)C(OC)C(OC)C5NC(=O)CCCCCN(C)C(=O)CCCCC5SCC6NC(=O)NC65)C(OC)C4OC)C(OS(=O)(=O)O)C3OS(=O)(=O)O)C(OC)C2OC)C(OS(=O)(=O)O)C1OS(=O)(=O)O (centres unmarked) [Compound 3, sodium salt]
Measure unit: %
Val: 1.2

Compound: COC1OC(COS(=O)(=O)O)C(OC2OC(C(=O)O)C(OC3OC(COS(=O)(=O)O)C(OC4OC(C(=O)O)C(OC5OC(COS(=O)(=O)O)C(OC)C(OC)C5NC(=O)CCCCNC(=O)NCCCCC5SCC6NC(=O)NC65)C(OC)C4OC)C(OS(=O)(=O)O)C3OS(=O)(=O)O)C(OC)C2OC)C(OS(=O)(=O)O)C1OS(=O)(=O)O (centres unmarked) [Compound 4, sodium salt]
Measure unit: %
Val: 2.5

Proceeding to the next compound to report its anti-factor Xa activity in the supernatant.
// recorded anti-factor Xa activity in the supernatant for COC1OC(COS(=O)(=O)O)C(OC2OC(C(=O)O)C(OC3OC(COS(=O)(=O)O)C(OC4OC(C(=O)O)C(OC5OC(COS(=O)(=O)O)C(OC)C(OC)C5NC(=O)CCCCCOCCCCCC5SCC6NC(=O)NC65)C(OC)C4OC)C(OS(=O)(=O)O)C3OS(=O)(=O)O)C(OC)C2OC)C(OS(=O)(=O)O)C1OS(=O)(=O)O (centres unmarked) [Compound 1, sodium salt] : 5.6
